Tested on: E. coli DH5α
Assay: Antibacterial activity: MIC and growth curve against E. coli DH5α in 96-well plate
Assay type: cell-based
Conditions: minimal inhibitory concentration against E. coli DH5α; 96-well plate, 5×10^5 CFU/mL, 37° C., judged after 8 h
value_kind: MIC (µg/mL)
Give bare numbers, in µg/mL.

>  <substance>
PRT759 (RVDYCLLSDHGCEYSCVNMDRSFACQCPEGHVLRSDGKTCA; listed as Homo sapiens)

>  <tested_target>
E. coli DH5α

>  <MIC [µg/mL]>
25

$$$$
>  <substance>
PRT1302 (QTSPCDQYECQNGAQCIVVQQEPTCRCPPGFAGPRCE; listed as Homo sapiens)

>  <tested_target>
E. coli DH5α

>  <MIC [µg/mL]>
12.5

$$$$
>  <substance>
PRT1409 (RACHPRCAEHGTCKDGKCECSQGWNGEHCT; listed as Homo sapiens)

>  <tested_target>
E. coli DH5α

>  <MIC [µg/mL]>
12.5

$$$$
>  <substance>
PRT1247 (WGARCEHACQCQHGTCHPRSGACRCEPGWWGAQCA; listed as Homo sapiens)

>  <tested_target>
E. coli DH5α

>  <MIC [µg/mL]>
50

$$$$
>  <substance>
PRT199 (CLPETCNMKGICNNKHHCHCGYGWSPPYCQ; listed as Homo sapiens)

>  <tested_target>
E. coli DH5α

>  <MIC [µg/mL]>
25

$$$$
>  <substance>
PRT1016 (RAGPCPPRGCSNGGTCQLMPEKDSTFHLCLCPPGFIGPDCE; listed as Homo sapiens)

>  <tested_target>
E. coli DH5α

>  <MIC [µg/mL]>
12.5

$$$$

For each of the substances below, state MIC.
1. PRT1353 (SDMSCPNDCHQHGRCVNGMCVCDDGYTGEDCR; listed as Homo sapiens)
2. PRT1311 (LLDPCSKNNGGCSPYATCKSTGDGQRTCTCDTAHTVGDGLTCR; listed as Homo sapiens)
3. PRT1051 (EQKLCKLRKGNCSSTVCGQDLQSHLCMCAEGYALSRDRKYCE; listed as Homo sapiens)

Solution:
12.5
50
50
